Tested on: P3 promoter (RNAIII / delta-toxin expression)
MEASUREMENT PROTOCOL: USA300-P3-Luc reporter screen for inhibition of RNAIII induction (P3 promoter activation by AIP)
Type: cell-based, Staphylococcus aureus
CONDITION LABEL: Staphylococcus aureus; 40 μM compound, 2 hours at 37° C., luminescence; relative to positive control (USA300 inhibitory AIP supernatant); read-out: % Inhibition
For each of the compounds below, state its inhibition at 40 µM.
Answers are plain numbers, in %.

Quick request: inhibition at 40 µM for each listed item, please.
1. Cc1ccc(Nc2c(F)cccc2Cl)c(CC(=O)O)c1 [LUMIRACOXIB | PREXIGE, LUMIRACOXIB]
2. CO/N=C1\C[C@]2(C[C@@H]3C[C@@H](C/C=C(\C)C[C@@H](C)/C=C/C=C4\CO[C@@H]5[C@H](O)C(C)=C[C@@H](C(=O)O3)[C@]45O)O2)O[C@H](/C(C)=C/C(C)C)[C@H]1C [MOXIDECTIN | CYDECTIN, MOXIDECTIN]
3. Oc1c2ccccc2c2c3c(cccc13)N=N2 [SP 600125]

Reply:
1. 60
2. 58.9
3. 45.3

Quick request: inhibition at 40 µM for each listed item, please.
1. C=C1CC[C@H](O)C/C1=C/C=C1\CCC[C@]2(C)[C@@H]([C@H](C)/C=C/[C@H](C)C(C)C)CC[C@@H]12 [ERGOCALCIFEROL]
2. O=C(NC(=O)c1c(F)cccc1F)Nc1cc(Cl)c(OC(F)(F)C(F)C(F)(F)F)cc1Cl (centres unmarked) [LUFENURON | PROGRAM, LUFENURON]

Reply:
1. 51.9
2. 55.8

###

Test system: P3 promoter (RNAIII / delta-toxin expression)
MEASUREMENT PROTOCOL: USA300-P3-Luc reporter screen for inhibition of RNAIII induction (P3 promoter activation by AIP)
Format: cell-based, Staphylococcus aureus
CONDITION LABEL: Staphylococcus aureus; 40 μM compound, 2 hours at 37° C., luminescence; relative to positive control (USA300 inhibitory AIP supernatant); read-out: % Inhibition
Structures can show the parent of a compound that is named as a salt.
PROPERTY NAME: inhibition at 40 µM (%)
Give bare numbers, in %.

INSERT INTO results (compound, readout_unit, quantitative_result) VALUES
  ('CSc1ccc(/C=C2/C(C)=C(CC(=O)O)c3cc(F)ccc32)cc1 [Sulindac Sulfide]', '%', 72.4),
  ('O=C(O)c1cc2cc(Cl)ccc2[nH]1 [5-CHLOROINDOLE-2-CARBOXYLIC ACID]', '%', 47.8),
  ('O=C1OC(c2ccc(O)cc2)(c2ccc(O)cc2)c2ccccc21 [PHENOLPHTHALEIN]', '%', 72.4);

Quick request: inhibition at 40 µM for each listed item, please.
1. O=C(O)c1nn(Cc2ccc(Cl)cc2Cl)c2ccccc12 [Lonidamine]
2. O=C(N/N=C/c1ccc([N+](=O)[O-])o1)c1cc([N+](=O)[O-])cc([N+](=O)[O-])c1O [NIFURSOL]
3. Nc1ccc(/N=N/c2ccccc2)c(N)n1 [PHENAZOPYRIDINE HYDROCHLORIDE]

Reply:
71.3
63.9
75.5
